Origin of values: the NIST ThermoML archive (doi:10.1021/je0301085)

Conditions: 298.15 K; 101.33 kPa; Liquid
Let's look at some compounds and their measured mass density.

>  <substance smiles>
ClC(Cl)=C(Cl)Cl

>  <value unit>
kg/m3

>  <mass density>
1615

$$$$
>  <substance smiles>
CC(Cl)(Cl)Cl

>  <value unit>
kg/m3

>  <mass density>
1330

$$$$
>  <substance smiles>
CCCCCCC

>  <value unit>
kg/m3

>  <mass density>
679.5

$$$$
>  <substance smiles>
ClC(Cl)C(Cl)Cl

>  <value unit>
kg/m3

>  <mass density>
1587

$$$$
>  <substance smiles>
ClC=C(Cl)Cl

>  <value unit>
kg/m3

>  <mass density>
1464

$$$$
>  <substance smiles>
O=[N+]([O-])c1ccccc1

>  <value unit>
kg/m3

>  <mass density>
1198

$$$$
>  <substance smiles>
ClCCCl

>  <value unit>
kg/m3

>  <mass density>
1247

$$$$

###

Test: refractive index (Na D-line) (dimensionless)
Details: 298.15 K; 101.33 kPa; Liquid; Standard Abbe refractometry
Let's look at some compounds and their measured refractive index.
attribute measured: refractive index

>  <substance smiles>
ClCCCl

>  <attribute measured>
refractive index

>  <observed measurement>
1.4421

$$$$
>  <substance smiles>
ClC=C(Cl)Cl

>  <attribute measured>
refractive index

>  <observed measurement>
1.4782

$$$$
>  <substance smiles>
CCCCCCC

>  <attribute measured>
refractive index

>  <observed measurement>
1.3851

$$$$
>  <substance smiles>
O=[N+]([O-])c1ccccc1

>  <attribute measured>
refractive index

>  <observed measurement>
1.55

$$$$
>  <substance smiles>
CC(Cl)(Cl)Cl

>  <attribute measured>
refractive index

>  <observed measurement>
1.436

$$$$
>  <substance smiles>
ClC(Cl)C(Cl)Cl

>  <attribute measured>
refractive index

>  <observed measurement>
1.494

$$$$
>  <substance smiles>
ClC(Cl)=C(Cl)Cl

>  <attribute measured>
refractive index

>  <observed measurement>
1.505

$$$$
